# Tested on: K. pneumoniae (ATCC10031)
# protocol: 50% growth inhibitory concentration (IC50) determination assay
# Type: cell-based
# measurement parameters: Klebsiella pneumoniae, Iso-Sensitest broth, 0.098 = detection limit

compound	IC50
CNc1cc(F)cc2c1[nH]c1ncc(-c3cnc4c(c3)c(=O)c(C(=O)O)cn4C)c(N3CCC(CN(C)C4CC4)C3)c12 (stereo not drawn)	< 0.098 µM
CNc1cc(F)c(F)c2c1[nH]c1ncc(-c3cnc4c(c3)c(=O)c(C(=O)O)cn4CC3(O)CC3)c(N(C)C)c12	0.411 µM
CNc1cc(F)cc2c1[nH]c1ncc(-c3cnc4c(c3)c(=O)c(C(=O)O)cn4C)c(N3CCC(C)(CN(C)C)C3)c12 (stereo not drawn)	< 0.098 µM
CNCCn1cc(C(=O)O)c(=O)c2cc(-c3cnc4[nH]c5c(NC)cc(F)c(F)c5c4c3N(C)C)cnc21	< 0.098 µM
CNc1cc(F)c(F)c2c1[nH]c1ncc(-c3cnc4c(c3)c(=O)c(C(=O)O)cn4C3CCNC3)c(N3CCCC3)c12 (stereo not drawn)	< 0.098 µM
CNc1cc(F)c(F)c2c1[nH]c1ncc(-c3cnc4c(c3)c(=O)c(C(=O)O)cn4[C@@H]3CCNC3)c(N3CCCC3)c12	< 0.098 µM

* * *

# protocol: Lyophilisation solubility assay (LYSA)
# Assay type: physicochemical
# measurement parameters: phosphate buffer, pH 6.5, aqueous buffer, thermodynamic from solid, 0.05 M phosphate buffer, HPLC-UV
property label: solubility thermodynamic

compound	property label	endpoint value
CNc1cc(F)c(F)c2c1[nH]c1ncc(-c3cnc4c(c3)c(=O)c(C(=O)O)cn4C)c(N3CCC4CN(C)CCC43)c12 (stereo not drawn) [Example 1.243]	solubility thermodynamic	151 µg/mL
CNc1cc(F)c(F)c2c1[nH]c1ncc(-c3cnc4c(c3)c(=O)c(C(=O)O)cn4C)c(N3CCOC(CN(C)C)C3)c12 (stereo not drawn) [Example 1.61]	solubility thermodynamic	600 µg/mL
CNc1cc(F)c(F)c2c1[nH]c1ncc(-c3cnc4c(c3)c(=O)c(C(=O)O)cn4NC)c(N3CCC4(CF)CN(C)CC34)c12 (stereo not drawn) [Example 1.125]	solubility thermodynamic	262 µg/mL
CCN(CC)CC1CN(c2c(-c3cnc4c(c3)c(=O)c(C(=O)O)cn4C)cnc3[nH]c4c(NC)cc(F)c(F)c4c23)CCO1 (stereo not drawn) [Example 1.149]	solubility thermodynamic	530 µg/mL
CNc1cc(F)c(F)c2c1[nH]c1ncc(-c3cnc4c(c3)c(=O)c(C(=O)O)cn4C)c(N3CCC[C@H](N(C)C)C3)c12 [Example 3.06B]	solubility thermodynamic	85 µg/mL
CNc1cc(F)c(F)c2c1[nH]c1ncc(-c3cnc4c(c3)c(=O)c(C(=O)O)cn4C)c(N3CCC4(F)CN(C)CC34)c12 (stereo not drawn) [Example 1.120]	solubility thermodynamic	37 µg/mL
CNc1cc(F)c(F)c2c1[nH]c1ncc(-c3cnc4c(c3)c(=O)c(C(=O)O)cn4C)c(N3CCC[C@@H](N(C)C)C3)c12 [Example 3.06A]	solubility thermodynamic	66 µg/mL
CNc1cc(F)c(F)c2c1[nH]c1ncc(-c3cnc4c(c3)c(=O)c(C(=O)O)cn4NC)c(N3CC[C@H]4CN(C)CC43)c12 (stereo partly drawn) [Example 1.189]	solubility thermodynamic	255 µg/mL
CNc1cc(F)c(F)c2c1[nH]c1ncc(-c3cnc4c(c3)c(=O)c(C(=O)O)cn4C)c(N3C[C@H]4CCC[C@@H](N(C)C)[C@H]4C3)c12 [Example 1.175]	solubility thermodynamic	113 µg/mL
CNc1cc(F)c(F)c2c1[nH]c1ncc(-c3cnc4c(c3)c(=O)c(C(=O)O)cn4NC)c(N3CCC[C@H]3CN(C)C)c12 [Example 1.217]	solubility thermodynamic	190 µg/mL
CCNc1cc(F)c(F)c2c1[nH]c1ncc(-c3cnc4c(c3)c(=O)c(C(=O)O)cn4C)c(N3CCC(CN(C)C)C3)c12 (stereo not drawn) [Example 1.106]	solubility thermodynamic	19 µg/mL
CNc1cc(F)c(F)c2c1[nH]c1ncc(-c3cnc4c(c3)c(=O)c(C(=O)O)cn4C)c(N3CCC4(CCN(C)C4)C3)c12 (stereo not drawn) [Example 1.229]	solubility thermodynamic	12 µg/mL
CNc1cc(F)c(F)c2c1[nH]c1ncc(-c3cnc4c(c3)c(=O)c(C(=O)O)cn4NC)c(N3CC[C@@H]4CN(C)C[C@@H]43)c12 [Example 3.01B]	solubility thermodynamic	265 µg/mL
CNc1cc(F)c(F)c2c1[nH]c1ncc(-c3cnc4c(c3)c(=O)c(C(=O)O)cn4C)c(N3CC[C@@H]4CN(C)C[C@@H]43)c12 [Example 3.03B]	solubility thermodynamic	180 µg/mL
CNc1cc(F)c(F)c2c1[nH]c1ncc(-c3cnc4c(c3)c(=O)c(C(=O)O)cn4C)c(N3CC[C@H]4CN(CCO)CC43)c12 (stereo partly drawn) [Example 1.205]	solubility thermodynamic	192 µg/mL
CNc1cc(F)c(F)c2c1[nH]c1ncc(-c3cnc4c(c3)c(=O)c(C(=O)O)cn4NC)c(N3CC4OCCN(C)C4C3)c12 (stereo not drawn) [Example 1.236]	solubility thermodynamic	55 µg/mL
CNc1cc(F)c(F)c2c1[nH]c1ncc(-c3cnc4c(c3)c(=O)c(C(=O)O)cn4C)c(N3CC(N(C)C)C4(CC4)C3)c12 (stereo not drawn) [Example 1.207]	solubility thermodynamic	73 µg/mL
CNc1cc(F)c(F)c2c1[nH]c1ncc(-c3cnc4c(c3)c(=O)c(C(=O)O)cn4C)c(N3CC[C@@H](CN(C)C)C3)c12 [Example 1.255]	solubility thermodynamic	99 µg/mL
CNc1cc(F)c(F)c2c1[nH]c1ncc(-c3cnc4c(c3)c(=O)c(C(=O)O)cn4NC)c(N3CC4[C@@H](C3)OCCN4C)c12 (stereo partly drawn) [Example 1.242]	solubility thermodynamic	24 µg/mL
CNc1cc(F)c(F)c2c1[nH]c1ncc(-c3cnc4c(c3)c(=O)c(C(=O)O)cn4C)c(N3CC4CN(C)C[C@@H]4C3)c12 (stereo partly drawn) [Example 1.227]	solubility thermodynamic	12 µg/mL
CNc1cc(F)c(F)c2c1[nH]c1ncc(-c3cnc4c(c3)c(=O)c(C(=O)O)cn4C)c(N3CCC(CN(C)C)CC3)c12 [Example 1.183]	solubility thermodynamic	96 µg/mL
CNc1cc(F)c(F)c2c1[nH]c1ncc(-c3cnc4c(c3)c(=O)c(C(=O)O)cn4C)c(N3CCC4C3CCCN4C)c12 (stereo not drawn) [Example 1.246]	solubility thermodynamic	> 612 µg/mL
CNc1cc(F)cc2c1[nH]c1ncc(-c3cnc4c(c3)c(=O)c(C(=O)O)cn4NC)c(N3CC4[C@H](CCCN4C)C3)c12 (stereo partly drawn) [Example 1.111]	solubility thermodynamic	112 µg/mL
CNc1cc(F)cc2c1[nH]c1ncc(-c3cnc4c(c3)c(=O)c(C(=O)O)cn4C)c(N3CCC(CN(C)CCOC)C3)c12 (stereo not drawn) [Example 1.141]	solubility thermodynamic	485 µg/mL

* * *

# protocol: Cytotoxicity assay (HepG2, CellTiter-Blue cell viability)
# Type: cell-based
# measurement parameters: human; HepG2 cells, 3 days treatment; "*": the detection limit; read-out: CC50

compound	CC50 at 3 days
CNc1cc(F)c(F)c2c1[nH]c1ncc(-c3cnc4c(c3)c(=O)c(C(=O)O)cn4C3CCNC3)c(N3CCO[C@@H](C)C3)c12 (stereo partly drawn) [Example 1.251]	> 100 µM
CNc1cc(F)c(F)c2c1[nH]c1ncc(-c3cnc4c(c3)c(=O)c(C(=O)O)cn4NC)c(N3CC[C@H]4CN(C)C4C3)c12 (stereo partly drawn) [Example 1.214]	40.8 µM
[2H]C([2H])([2H])Nc1cc(F)c(F)c2c1[nH]c1ncc(-c3cnc4c(c3)c(=O)c(C(=O)O)cn4C3CCNC3)c(N(C)C)c12 (stereo not drawn) [Example 1.64]	> 100 µM

* * *

# protocol: Cytotoxicity assay (HepG2, CellTiter-Blue cell viability)
# Format: cell-based
# measurement parameters: human; HepG2 cells, 3 days treatment; "*": the detection limit; read-out: CC50
# Procedure: The cytotoxicity of compounds of present invention was assessed by HepG2 assay. HepG2 cells (ATCC HB-8065™) were seeded into 96-well plates (1.2×10^4 cells per well) and treated with compounds for 3 days, cell viability was measured at day 3 post compound treatment using the CellTiter-Blue® Cell Viability Assay (Promega, Cat. No. G8082). […]
I'd appreciate it if you marked entries condition met when CC50 at 3 days is lower than 30 µM and condition not met when it is not.

molecule	label
CNc1cc(F)cc2c1[nH]c1ncc(-c3cnc4c(c3)c(=O)c(C(=O)O)cn4C)c(N3CCCC(CN(C)C)C3)c12 (stereo not shown)	condition not met
CNc1cc(F)c(F)c2c1[nH]c1ncc(-c3cnc4c(c3)c(=O)c(C(=O)O)cn4NC)c(N3CC[C@H]4CN(C)CC43)c12 (stereo partly shown)	condition not met
CNc1cc(F)cc2c1[nH]c1ncc(-c3cnc4c(c3)c(=O)c(C(=O)O)cn4C)c(N3CCN(C)CC3)c12	condition met
CNc1cc(F)cc2c1[nH]c1ncc(-c3cnc4c(c3)c(=O)c(C(=O)O)cn4C)c(N3CCC(O)C3)c12 (stereo not shown)	condition not met
CNc1cc(F)cc2c1[nH]c1ncc(-c3cnc4c(c3)c(=O)c(C(=O)O)cn4CC(C)O)c(N3CCOCC3)c12 (stereo not shown)	condition not met
CNc1cc(F)cc2c1[nH]c1ncc(-c3cnc4c(c3)c(=O)c(C(=O)O)cn4NC)c(N3CC[C@H]4CN(C)CC43)c12 (stereo partly shown)	condition not met
CCNc1cc(F)cc2c1[nH]c1ncc(-c3cnc4c(c3)c(=O)c(C(=O)O)cn4CC)c(-n3cc(CN)c(C(F)(F)F)n3)c12	condition not met
CNc1cc(F)c(F)c2c1[nH]c1ncc(-c3cnc4c(c3)c(=O)c(C(=O)O)cn4CC3COCCN3)c(N(C)CCOC)c12 (stereo not shown)	condition not met
CCNc1cc(F)cc2c1[nH]c1ncc(-c3cnc4c(c3)c(=O)c(C(=O)O)cn4C3CCNC3)c(N3CCOCC3)c12 (stereo not shown)	condition not met
CNc1cc(F)cc2c1[nH]c1ncc(-c3cnc4c(c3)c(=O)c(C(=O)O)cn4C)c(N3CC[C@H]4CN(C)C[C@H]43)c12 [Example 3.04A]	condition not met
CNc1cc(F)c(F)c2c1[nH]c1ncc(-c3cnc4c(c3)c(=O)c(C(=O)O)cn4C(C)CO)c(N3CCOCC3)c12 (stereo not shown)	condition not met
CNc1cc(F)c(Cl)c2c1[nH]c1ncc(-c3cnc4c(c3)c(=O)c(C(=O)O)cn4NC)c(N3CC[C@H]4CN(C)CC43)c12 (stereo partly shown)	condition not met
CNc1cc(F)c(F)c2c1[nH]c1ncc(-c3cnc4c(c3)c(=O)c(C(=O)O)cn4NCCOC)c(N3CC[C@H]4CN(C)C[C@H]43)c12 (relative stereo)	condition not met
CNc1cc(F)c(F)c2c1[nH]c1ncc(-c3cnc4c(c3)c(=O)c(C(=O)O)cn4C)c(N3CCC(N)(C(F)(F)F)C3)c12 (stereo not shown)	condition met
CNc1cc(F)c(F)c2c1[nH]c1ncc(-c3cnc4c(c3)c(=O)c(C(=O)O)cn4C)c(N3CC[C@H](O)C3)c12	condition met
CNc1cc(F)cc2c1[nH]c1ncc(-c3cnc4c(c3)c(=O)c(C(=O)O)cn4NC)c(N3CC4[C@@H](C3)OCCN4C)c12 (stereo partly shown)	condition not met
CNc1cc(F)cc2c1[nH]c1ncc(-c3cnc4c(c3)c(=O)c(C(=O)O)cn4Cc3cnccn3)c(N3CCOCC3)c12	condition not met
CNc1cc(F)c(F)c2c1[nH]c1ncc(-c3cnc4c(c3)c(=O)c(C(=O)O)cn4C)c(N3CC[C@@H](CN4CCCC4)C3)c12	condition not met
CNc1cc(F)cc2c1[nH]c1ncc(-c3cnc4c(c3)c(=O)c(C(=O)O)cn4C)c(N3CCC[C@H]3CN(C)C)c12	condition not met
CNc1cc(F)c(F)c2c1[nH]c1ncc(-c3cnc4c(c3)c(=O)c(C(=O)O)cn4CC3CCN(C)CC3)c(N(C)C)c12	condition not met
CNc1cc(F)c(F)c2c1[nH]c1ncc(-c3cnc4c(c3)c(=O)c(C(=O)O)cn4C)c(N3CCC(C)(CO)C3)c12 (stereo not shown)	condition met
CNc1cc(F)c(F)c2c1[nH]c1ncc(-c3cnc4c(c3)c(=O)c(C(=O)O)cn4C)c(N3CC[C@H]4CN(C)C[C@H]43)c12 [Example 3.03A]	condition not met
CNc1cc(F)cc2c1[nH]c1ncc(-c3cnc4c(c3)c(=O)c(C(=O)O)cn4N3CCOCC3)c(N3CCOCC3)c12	condition not met
